- Test system: Human immunodeficiency virus 1
- testSummary: Antiviral activity against HIV-1 infected human MT-4 cells.
- Type: functional, organism-based
- cond: Human immunodeficiency virus 1, MT4
log10(IC50) listing for selected compounds.
reportedMetric: log10(IC50) (log10 of the value in µM)

> print(dat)
                                    compound  endpointvalue
 1                  Cc1ccccc1Sc1cccc(N)c1C#N           1.20
 2        N#Cc1c(N)cccc1S(=O)(=O)c1cccc(F)c1           0.48
 3  Cc1ccc([S+]([O-])c2cccc(N)c2C#N)cc1 (configuration not stated)           1.69
 4  Cc1cc(C)cc([S+]([O-])c2cccc(N)c2C#N)c1 (configuration not stated)          -0.47
 5            COc1cc(C)cc(Sc2cccc(N)c2C#N)c1           0.30
 6     O=[N+]([O-])c1ccccc1S(=O)(=O)c1ccccc1           0.34
 7  O=[N+]([O-])c1ccccc1Sc1ccccc1[N+](=O)[O-]           1.97
 8               N#Cc1c(N)cccc1Sc1cccc(Br)c1           0.71
 9        Cc1cccc(S(=O)(=O)c2cccc(N)c2C#N)c1          -0.40
10              N#Cc1ccc(Sc2cccc(N)c2C#N)cc1           1.64

---

- measuredTarget: UniProtKB Q72547
reportedMetric: IC50 (µM)

> print(dat)
                                   compound    measuredtarget  reportedmetric  valuerelationsign  endpointvalue
1  Cc1ccccc1[S+]([O-])c1cccc(N)c1C#N (stereo not given)  UniProtKB Q72547            IC50                  >             21
2             N#Cc1c(N)cccc1Sc1cc(Cl)ccc1Cl  UniProtKB Q72547            IC50                  =            3.5
3  N#Cc1cccc([S+]([O-])c2cccc(N)c2C#N)c1 (stereo not given)  UniProtKB Q72547            IC50                  >             15
4               N#Cc1c(N)cccc1Sc1ccc(Cl)cc1  UniProtKB Q72547            IC50                  =             12
5  COc1ccc([S+]([O-])c2cccc(N)c2C#N)cc1 (stereo not given)  UniProtKB Q72547            IC50                  >             20

---

Reported IC50 values for a set of compounds
- Tested on: HeLa
- testSummary: Antiviral activity against wild-type HIV-1 in the HeLa MAGI assay.
- Assay type: functional, cell-based
- cond: Homo sapiens
reportedMetric: IC50 (µM)

> print(dat)
                               smilesrecord  reportedmetric  endpointvalue
1   N#Cc1c(N)cccc1S(=O)(=O)c1cc(Cl)cc(Cl)c1            IC50          0.037
2     Cc1cc(C)cc(S(=O)(=O)c2cccc(N)c2C#N)c1            IC50          0.011
3  COc1cc(C(F)(F)F)cc(S(=O)(=O)c2cccc(N)c2C#N)c1            IC50          0.063
4  O=C1Nc2ccc(Cl)cc2[C@@](C#CC2CC2)(C(F)(F)F)O1            IC50         0.0009
5    Cc1cc(Br)cc(S(=O)(=O)c2cccc(N)c2C#N)c1            IC50          0.009
6     N#Cc1c(N)cccc1S(=O)(=O)c1cccc2ccccc12            IC50          0.014
7           Cc1ccnc2c1NC(=O)c1cccnc1N2C1CC1            IC50          0.089
8    COc1cc(C)cc(S(=O)(=O)c2cccc(N)c2C#N)c1            IC50          0.014
9    Cc1cc(Cl)cc(S(=O)(=O)c2cccc(N)c2C#N)c1            IC50          0.015

---

This listing pairs compounds with measured pIC50.
- measuredTarget: Human immunodeficiency virus type 1 reverse transcriptase (Human immunodeficiency virus 1, UniProt Q72547)
pIC50: −log10 of the molar value.
reportedMetric: pIC50

> print(dat)
                                    compound  valuerelationsign  endpointvalue
 1                Cc1ccc(Sc2cccc(N)c2C#N)cc1                  =           5.24
 2                N#Cc1ccccc1Sc1cccc(N)c1C#N                  =           5.04
 3  COc1cccc([S+]([O-])c2cccc(N)c2C#N)c1 (configuration not stated)                  =           4.72
 4               N#Cc1c(N)cccc1Sc1cccc(Cl)c1                  =           4.80
 5               N#Cc1c(N)cccc1Sc1cccc(Br)c1                  =           4.82
 6             Cc1cc(C)cc(Sc2cccc(N)c2C#N)c1                  =           5.96
 7  Cc1cc(C)cc([S+]([O-])c2cccc(N)c2C#N)c1 (configuration not stated)                  =           6.30
 8                   N#Cc1c(N)cccc1Sc1ccccc1                  =           5.06
 9     COc1cc(Sc2cccc(N)c2C#N)cc(C(F)(F)F)c1                  =           4.89
10                N#Cc1c(N)cccc1Sc1cccc(N)c1                  <           4.64
11          N#Cc1c(N)cccc1S(=O)(=O)c1ccccc1F                  =           5.30
12         COc1ccccc1S(=O)(=O)c1cccc(N)c1C#N                  =           5.85
13         N#Cc1c(N)cccc1S(=O)(=O)c1ccccc1Br                  =           4.92
14              N#Cc1cccc(Sc2cccc(N)c2C#N)c1                  =           5.96
15      N#Cc1ccc(S(=O)(=O)c2cccc(N)c2C#N)cc1                  <           4.74
16            Cc1cc(Cl)cc(Sc2cccc(N)c2C#N)c1                  =           5.77
17           N#Cc1c(N)cccc1S(=O)(=O)c1ccccc1                  =           5.16
18      N#Cc1cccc(S(=O)(=O)c2cccc(N)c2C#N)c1                  =           5.74
19       COc1ccc(S(=O)(=O)c2cccc(N)c2C#N)cc1                  =           4.89
20  O=[N+]([O-])c1ccccc1Sc1ccccc1[N+](=O)[O-]                  <           4.70
21     N#Cc1c(N)cccc1S(=O)(=O)c1cccc2ccccc12                  =           6.00
22          Cc1ccccc1S(=O)(=O)c1cccc(N)c1C#N                  =           5.35
23  N#Cc1c(N)cccc1[S+]([O-])c1cccc(C(F)(F)F)c1 (configuration not stated)                  <           4.66
24                 N#Cc1c(N)cccc1Sc1ccccc1Br                  <           4.68
25       N#Cc1c(N)cccc1S(=O)(=O)c1cccc(Br)c1                  =           6.70
26  N#Cc1c(N)cccc1[S+]([O-])c1ccccc1Br (configuration not stated)                  <           4.72
27       N#Cc1c(N)cccc1S(=O)(=O)c1ccc(Br)cc1                  <           4.85
28     N#Cc1c(N)cccc1S(=O)(=O)c1cc(Cl)ccc1Cl                  =           6.52
29        Cc1cccc(S(=O)(=O)c2cccc(N)c2C#N)c1                  =           6.70
30                Cc1cccc(Sc2cccc(N)c2C#N)c1                  =           6.02
31   N#Cc1c(N)cccc1S(=O)(=O)c1cc(Cl)cc(Cl)c1                  =           7.52
32  N#Cc1c(N)cccc1[S+]([O-])c1cc(Cl)ccc1Cl (configuration not stated)                  =           5.21
33               COc1ccc(Sc2cccc(N)c2C#N)cc1                  <           4.77
34  N#Cc1ccccc1[S+]([O-])c1cccc(N)c1C#N (configuration not stated)                  =           5.00
35       COc1cccc(S(=O)(=O)c2cccc(N)c2C#N)c1                  =           6.22
36  CCCCOc1cc(C)cc(S(=O)(=O)c2cccc(N)c2C#N)c1                  =           6.40
37  COc1cc(C(F)(F)F)cc(S(=O)(=O)c2cccc(N)c2C#N)c1                  =           7.40
38  N#Cc1c(N)cccc1S(=O)(=O)c1cccc(C(F)(F)F)c1                  =           5.28
39  Cc1ccc([S+]([O-])c2cccc(N)c2C#N)cc1 (configuration not stated)                  <           4.68
40  Cc1cc(Cl)cc([S+]([O-])c2cccc(N)c2C#N)c1 (configuration not stated)                  =           6.28
41     O=[N+]([O-])c1ccccc1S(=O)(=O)c1ccccc1                  =           4.80
42  COc1ccccc1[S+]([O-])c1cccc(N)c1C#N (configuration not stated)                  =           4.92
43        N#Cc1ccccc1S(=O)(=O)c1cccc(N)c1C#N                  =           5.22
44               COc1cccc(Sc2cccc(N)c2C#N)c1                  =           5.82
45  N#Cc1ccc([S+]([O-])c2cccc(N)c2C#N)cc1 (configuration not stated)                  <           4.64
46         N#Cc1c(N)cccc1S(=O)(=O)c1ccccc1Cl                  =           5.23
47            COc1cc(C)cc(Sc2cccc(N)c2C#N)c1                  =           6.85
48     N#Cc1c(N)cccc1S(=O)(=O)c1ccc2ccccc2c1                  =           7.52
49    Cc1cc(Br)cc(S(=O)(=O)c2cccc(N)c2C#N)c1                  =           8.52
50           N#Cc1c(N)cccc1Sc1cc(Cl)cc(Cl)c1                  =           6.92
51  N#Cc1c(N)cccc1[S+]([O-])c1cccc(Br)c1 (configuration not stated)                  =           5.32
52              N#Cc1ccc(Sc2cccc(N)c2C#N)cc1                  <           4.72
